Target: 17-beta-hydroxysteroid dehydrogenase type 1 (Homo sapiens)
Sequence (whole entry): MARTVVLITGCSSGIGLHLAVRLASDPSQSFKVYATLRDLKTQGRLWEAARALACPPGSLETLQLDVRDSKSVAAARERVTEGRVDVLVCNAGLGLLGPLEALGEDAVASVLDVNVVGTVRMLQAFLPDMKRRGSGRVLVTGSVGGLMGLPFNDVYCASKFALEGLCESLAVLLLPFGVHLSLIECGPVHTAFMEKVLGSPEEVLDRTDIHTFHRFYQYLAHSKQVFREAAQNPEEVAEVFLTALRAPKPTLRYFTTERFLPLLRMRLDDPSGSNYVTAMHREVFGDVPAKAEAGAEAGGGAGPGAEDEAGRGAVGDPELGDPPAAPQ
Experiment: Inhibition of 17 beta-HSD1 in human T47D cells assessed as inhibition of transformation of [14C]E1 to [14C]E2 at 10 uM after overnight incubation
Format: cell-based
The source made the active and inactive calls. The calls are words filed in the database; no cut-off is given here.
OBSERVED_PROPERTY: inhibition

CCCCCCCCN1C(=O)O[C@H]2C(=C[C@H]3[C@@H]4CCc5cc(O)ccc5[C@H]4CC[C@]23C)[C@@H]1c1cccc(C(N)=O)c1 ... Active
CCCCCCN1C(=O)O[C@H]2C(=C[C@H]3[C@@H]4CCc5cc(O)ccc5[C@H]4CC[C@]23C)[C@@H]1c1cccc(C(N)=O)c1 ... Active
CCCCN1C(=O)O[C@@H]2[C@@]3(C)CC[C@@H]4c5ccc(O)cc5CC[C@H]4[C@@H]3C[C@]2(O)[C@@H]1c1cccc(C(N)=O)c1 ... Active
CCN1C(=O)O[C@@H]2[C@@]3(C)CC[C@@H]4c5ccc(O)cc5CC[C@H]4[C@@H]3C[C@]2(O)[C@@H]1c1cccc(C(N)=O)c1 ... Active

Next compound, inhibition to be filled in.
## Task # query: inhibition of entry CCN1C(=O)O[C@H]2C(=C[C@H]3[C@@H]4CCc5cc(O)ccc5[C@H]4CC[C@]23C)[C@@H]1c1cccc(C(N)=O)c1
## Result Active

----------
Molecular target: 17-beta-hydroxysteroid dehydrogenase type 1 (Homo sapiens) (UniProt P14061)
Test: Inhibition of 17 beta-HSD1 in human T47D cells assessed as inhibition of transformation of [14C]E1 to [14C]E2 at 10 uM after overnight incubation
Type: cell-based
Active and inactive are the calls of the source. No cut-off for these calls is given here.
OBSERVED_PROPERTY: inhibition

CCCCCCN1C(=O)O[C@@H]2[C@@]3(C)CC[C@@H]4c5ccc(O)cc5CC[C@H]4[C@@H]3C[C@]2(O)[C@@H]1c1cccc(C(N)=O)c1 ... Active
CCCCCCCCN1C(=O)O[C@@H]2[C@@]3(C)CC[C@@H]4c5ccc(O)cc5CC[C@H]4[C@@H]3C[C@]2(O)[C@@H]1c1cccc(C(N)=O)c1 ... Active
CCCCN1C(=O)O[C@H]2C(=C[C@H]3[C@@H]4CCc5cc(O)ccc5[C@H]4CC[C@]23C)[C@@H]1c1cccc(C(N)=O)c1 ... Active
